B1: glmS ribozyme (parent)
chain: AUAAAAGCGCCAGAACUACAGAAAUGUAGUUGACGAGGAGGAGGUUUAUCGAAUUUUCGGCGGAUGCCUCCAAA

- Variants of: B1
- ASSAY INFO: kcat; higher = faster cleavage; RNA array
- RUN CONDITIONS: with glucosamine-6-phosphate
This sample holds only a part of the variants without activity.
Respond with 1 for kcat values of 0.0003 s⁻¹ and above, -1 for values below.

{"MUTATION STRING": "G13U U56A", "CLASSIFICATION": 1}
{"MUTATION STRING": "U31A C58A", "CLASSIFICATION": 1}
{"MUTATION STRING": "U30C G37A", "CLASSIFICATION": -1}
{"MUTATION STRING": "G37U A52G", "CLASSIFICATION": -1}
{"MUTATION STRING": "G41U U45C", "CLASSIFICATION": 1}
{"MUTATION STRING": "A53C U65A", "CLASSIFICATION": 1}
{"MUTATION STRING": "U31C C34G", "CLASSIFICATION": -1}
{"MUTATION STRING": "A53G C67G", "CLASSIFICATION": 1}
{"MUTATION STRING": "A6G A39U", "CLASSIFICATION": -1}
{"MUTATION STRING": "G59U C67G", "CLASSIFICATION": -1}
{"MUTATION STRING": "G38A G59C", "CLASSIFICATION": -1}
{"MUTATION STRING": "A52G U57A", "CLASSIFICATION": 1}
{"MUTATION STRING": "A15U C50U", "CLASSIFICATION": -1}
{"MUTATION STRING": "G13C C70A", "CLASSIFICATION": -1}
{"MUTATION STRING": "G38C G51C", "CLASSIFICATION": -1}
{"MUTATION STRING": "A6U G40U", "CLASSIFICATION": -1}
{"MUTATION STRING": "A6U U55G", "CLASSIFICATION": 1}
{"MUTATION STRING": "G29C C68U", "CLASSIFICATION": -1}
{"MUTATION STRING": "G59U C70U", "CLASSIFICATION": -1}
{"MUTATION STRING": "A52U U69C", "CLASSIFICATION": -1}
{"MUTATION STRING": "G66U U69A", "CLASSIFICATION": -1}
{"MUTATION STRING": "C10A U47A U57A C70U", "CLASSIFICATION": -1}
